# targetUnderTest: hGhrR (COS7 cells stably transfected with hGhrR) (Homo sapiens, UniProt Q92847)
# Construct: expressed in transfected cells
# Sequence (Q92847 whole entry): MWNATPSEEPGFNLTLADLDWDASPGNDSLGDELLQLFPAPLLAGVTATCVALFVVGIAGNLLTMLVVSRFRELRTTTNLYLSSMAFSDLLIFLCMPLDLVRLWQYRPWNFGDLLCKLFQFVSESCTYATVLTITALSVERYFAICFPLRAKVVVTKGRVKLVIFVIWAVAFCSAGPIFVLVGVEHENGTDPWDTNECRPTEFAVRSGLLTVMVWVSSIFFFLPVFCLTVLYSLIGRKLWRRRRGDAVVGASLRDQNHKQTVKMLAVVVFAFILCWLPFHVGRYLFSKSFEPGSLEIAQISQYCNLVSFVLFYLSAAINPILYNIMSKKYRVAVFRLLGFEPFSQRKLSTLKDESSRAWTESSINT
# protocolSummary: Inositol phosphate accumulation assay, antagonistic potency with 10^-8 M ghrelin
# Type: cell-based
# conditionInfo: 5 min pre-stimulation with compound, then 10^-8 M ghrelin; read-out: IC50 (antagonistic potency)
# key: entry, value: IC50
Express your answer in nM, writing the number without its unit.

| compound | targetUnderTest | IC50 [nM] |
| --- | --- | --- |
| Cc1nc2ccc(Oc3ccc(Br)cc3F)nc2c(=O)n1C[C@H]1CCCN(C(C)C)C1 [(S)-9] | hGhrR (COS7 cells stably transfected with hGhrR) (Homo sapiens, UniProt Q92847) | 24.8 |
| Cc1nc2ccc(Oc3ccc(Br)cc3F)nc2c(=O)n1C[C@H]1CCCN(C(C)CF)C1 (stereo partly drawn) [(S)-13] | hGhrR (COS7 cells stably transfected with hGhrR) (Homo sapiens, UniProt Q92847) | 207 |
| Cc1nc2ccc(Oc3ccc(Br)cc3F)nc2c(=O)n1C[C@H]1CCCN(CCCF)C1 [(S)-11] | hGhrR (COS7 cells stably transfected with hGhrR) (Homo sapiens, UniProt Q92847) | 349 |

Task item: Requested field: IC50. Item: Cc1nc2ccc(Oc3ccc(Br)cc3F)nc2c(=O)n1C[C@@H]1CCCN(C(C)C)C1 [(R)-9]
Reply: 17.5

====

# protocolSummary: HPLC-based chromatographic hydrophobicity index on immobilized artificial membranes (CHI IAM)
# Type: physicochemical
# conditionInfo: IAM PC DD2 column, acetonitrile / 50 mM ammonium acetate gradient
# key: entry, value: CHI IAM
Just the number, please, no unit after it.

Worked cases, CHI IAM given:
| compound | CHI IAM |
| --- | --- |
| CC(C)N1CCC[C@H](Cn2cnc3ccc(Oc4ccc(Br)cc4F)nc3c2=O)C1 [(S)-16] | 42.3 |
| Cc1nc2ccc(Oc3ccc(Br)cc3F)nc2c(=O)n1C[C@H]1CCCN(CCCCF)C1 [(S)-12] | 43.3 |
| Cc1nc2ccc(Oc3ccc(Br)cc3F)nc2c(=O)n1C[C@H]1CCCN(CCF)C1 [(S)-10] | 39.6 |
| Cc1nc2ccc(Oc3ccc(Br)cc3F)nc2c(=O)n1C[C@H]1CCCN(C(C)CF)C1 (stereo partly drawn) [(S)-13] | 42.8 |
| Cc1nc2ccc(Oc3ccc(Br)cc3F)nc2c(=O)n1C[C@@H]1CCCN(C(C)C)C1 [(R)-9] | 42.8 |

Task item: Requested field: CHI IAM. Item: Cc1nc2ccc(Oc3ccc(Br)cc3)nc2c(=O)n1C[C@H]1CCCN(C(C)C)C1 [(S)-14]
Reply: 42.8

Task item: Requested field: CHI IAM. Item: Cc1nc2ccc(Oc3ccc(Br)cc3F)nc2c(=O)n1C[C@H]1CCCN(C(C)C)C1 [(S)-9]
Reply: 43.0

Task item: Requested field: CHI IAM. Item: Cc1nc2ccc(Oc3ccc(Br)cc3F)nc2c(=O)n1C[C@H]1CCCN(CCCF)C1 [(S)-11]
Reply: 42.2

====

# key: entry, value: pKi
# targetUnderTest: human α3β4 nAChR (Homo sapiens, UniProt P30926+P32297)
# Sequence (P32297 32-505): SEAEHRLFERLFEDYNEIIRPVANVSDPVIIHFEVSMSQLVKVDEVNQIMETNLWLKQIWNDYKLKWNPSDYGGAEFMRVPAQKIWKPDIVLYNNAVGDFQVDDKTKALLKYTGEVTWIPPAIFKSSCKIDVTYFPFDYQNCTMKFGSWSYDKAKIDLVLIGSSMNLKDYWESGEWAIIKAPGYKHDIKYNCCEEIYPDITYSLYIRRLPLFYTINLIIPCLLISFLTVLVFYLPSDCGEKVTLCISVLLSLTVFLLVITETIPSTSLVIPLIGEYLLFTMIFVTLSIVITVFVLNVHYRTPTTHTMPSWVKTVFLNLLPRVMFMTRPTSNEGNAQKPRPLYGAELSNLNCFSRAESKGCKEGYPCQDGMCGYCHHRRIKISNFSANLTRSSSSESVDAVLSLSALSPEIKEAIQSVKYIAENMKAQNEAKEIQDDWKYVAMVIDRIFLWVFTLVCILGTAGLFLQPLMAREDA
# Sequence (P30926 22-498): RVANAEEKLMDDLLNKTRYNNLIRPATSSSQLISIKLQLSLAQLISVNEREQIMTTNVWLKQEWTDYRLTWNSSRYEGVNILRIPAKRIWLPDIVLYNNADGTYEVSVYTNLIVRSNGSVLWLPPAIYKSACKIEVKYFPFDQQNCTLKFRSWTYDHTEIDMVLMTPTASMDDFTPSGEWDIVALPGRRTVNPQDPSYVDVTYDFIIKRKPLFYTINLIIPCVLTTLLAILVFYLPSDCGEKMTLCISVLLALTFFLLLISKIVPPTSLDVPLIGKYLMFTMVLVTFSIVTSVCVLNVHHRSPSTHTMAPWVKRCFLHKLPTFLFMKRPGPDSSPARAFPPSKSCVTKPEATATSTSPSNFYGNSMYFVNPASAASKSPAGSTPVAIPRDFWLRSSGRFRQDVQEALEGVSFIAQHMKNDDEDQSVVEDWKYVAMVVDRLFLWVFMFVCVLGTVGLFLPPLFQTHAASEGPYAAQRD
# protocolSummary: Selectivity radioligand displacement, [3H]epibatidine, transfected HEK cells
# conditionInfo: read-out: Ki at α3β4 nAChRs
Note: pKi values are expressed as the negative base-10 logarithm of concentration in M.

| compound | pKi |
| --- | --- |
| Cc1nc2ccc(Oc3ccc(Br)cc3F)nc2c(=O)n1C[C@H]1CCCN(CCCF)C1 [(S)-11] | 7.57 |

Task item: Requested field: pKi. Item: Cc1nc2ccc(Oc3ccc(Br)cc3F)nc2c(=O)n1C[C@H]1CCCN(CCCCF)C1 [(S)-12]
Reply: 7.19

Hello, the source for this data is paper PMC5412352, in case you need it.
